Tested on: HeLa Kyoto;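 note: synchronized HeLa Kyoto cells, proteins quantified by TMT10plex mass spectrometry, three biological replicates, mitosis taken 0.5 h after nocodazole release, G1/S directly after double thymidine block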
Test: thermal stability score vs G1/S (z-score of summed log2 fold changes over temperatures); higher = more thermally stable than in G1/S
Conditions: cell cycle stage: mitosis
As shown below, each of these sequences has a reported thermal stability score value.

| Sequence Entry | thermal stability score |
| --- | --- |
| MVKLFIGNLPREATEQEIRSLFEQYGKVLECDIIKNYGFVHIEDKTAAEDAIRNLHHYKLHGVNINVEASKNKSKTSTKLHVGNISPTCTNKELRAKFEEYGPVIECDIVKDYAFVHMERAEDAVEAIRGLDNTEFQGKRMHVQLSTSRLRTAPGMGDQSGCYRCGKEGHWSKECPIDRSGRVADLTEQYNEQYGAVRTPYTMSYGDSLYYNNAYGALDAYYKRCRAARSYEAVAAAAASVYNYAEQTLSQLPQVQNTAMASHLTSTSLDPYDRHLLPTSGAAATAAAAAAAAAAVTAASTSYYGRDRSPLRRATAPVPTVGEGYGYGHESELSQASAAARNSLYDMARYEREQYADRARYSAF [RBM4] | -0.114 |

// query thermal stability score value for entry MALRACGLIIFRRCLIPKVDNNAIEFLLLQASDGIHHWTPPKGHVEPGEDDLETALRETQEEAGIEAGQLTIIEGFKRELNYVARNKPKTVIYWLAEVKDYDVEIRLSHEHQAYRWLGLEEACQLAQFKEMKAALQEGHQFLCSIEA [NUDT2] -1.24

Can you share its thermal stability score? I mean this sequence: MAIKSIASRLRGSRRFLSGFVAGAVVGAAGAGLAALQFFRSQGAEGALTGKQPDGSAEKAVLEQFGFPLTGTEARCYTNHALSYDQAKRVPRWVLEHISKSKIMGDADRKHCKFKPDPNIPPTFSAFNEDYVGSGWSRGHMAPAGNNKFSSKAMAETFYLSNIVPQDFDNNSGYWNRIEMYCRELTERFEDVWVVSGPLTLPQTRGDGKKIVSYQVIGEDNVAVPSHLYKVILARRSSVSTEPLALGAFVVPNEAIGFQPQLTEFQVSLQDLEKLSGLVFFPHLDRTSDIRNICSVDTCKLLDFQEFTLYLSTRKIEGARSVLRLEKIMENLKNAEIEPDDYFMSRYEKKLEELKAKEQSGTQIRKPS [EXOG] -1.52

Cited source: the supplement of paper PMC5998384
